Reported pIC50 for target or system Epidermal growth factor receptor (Homo sapiens, UniProt P00533, C797S/L858R), by entry.
Give bare numbers, as −log10 of the molar value.

# count of solved cases: 3
> print(dat)
                                   compound  result.type  observed.result
1  O=C(Nc1nccs1)C(c1ncn2c1CCC2)N1Cc2c(cc(C#Cc3ccc(CN4CCC(CO)CC4)cc3)cc2C(F)F)C1=O (centres undefined)        pIC50             7.89
2  O=C(Nc1nccs1)C(c1ncn2c1CCC2)N1Cc2c(F)cc(C#Cc3ccc(CN4CCC(CO)CC4)cc3)cc2C1=O (centres undefined)        pIC50             7.92
3  O=C(Nc1nccs1)C(c1ncn2c1CCC2)n1cc2c(F)cc(C#Cc3ccc(CN4CCC(O)CC4)cc3)cc2n1 (centres undefined)        pIC50             6.97

Now examine the next entry.
Please report the recorded pIC50 for O=C(Nc1nccs1)C(c1ncn2c1CCC2)N1Cc2c(F)cc(C#Cc3ccc(CN4CCC(O)CC4)cc3)cc2C1=O (centres undefined) .
7.48
